Biological target: SIRT2 (Homo sapiens)
Construct: For assay experiments, strep-tagged human SIRT1134−747 and SIRT256-356 were expressed and purified as previously; Strep-tag; made in house; host or cells: E. coli BL21 Star (DE3)
Sequence (Q8IXJ6 56-356 limits assumed): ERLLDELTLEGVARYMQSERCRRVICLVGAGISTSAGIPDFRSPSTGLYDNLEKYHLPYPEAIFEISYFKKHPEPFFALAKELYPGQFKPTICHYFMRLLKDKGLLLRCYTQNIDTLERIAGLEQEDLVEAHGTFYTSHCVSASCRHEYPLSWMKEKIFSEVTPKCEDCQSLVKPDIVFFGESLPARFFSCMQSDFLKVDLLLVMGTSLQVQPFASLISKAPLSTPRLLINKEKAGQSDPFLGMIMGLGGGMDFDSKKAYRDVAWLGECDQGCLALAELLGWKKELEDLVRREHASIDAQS
Experiment: Fluorescence-based deacetylation assay (ZMAL-assay), SIRT2
Assay type: biochemical
Settings: 37 °C, assay limit 0.10 µM, read-out: SIRT2 (deac.) IC50
experimental endpoint: IC50 (nM)
Give the value in nM but do not write nM after it.

Input line: Entry under review: Cc1cc(C)nc(SCC(=O)Nc2ncc(Cc3cccc(OCc4c[nH]nn4)c3)s2)n1 [Compound 7] . Reported IC50?
Output line: 7800

Input line: Entry under review: Cc1cc(C)nc(SCC(=O)Nc2ncc(Cc3cccc(OCc4cn(Cc5ccc(OCCN6CCOCC6)cc5)nn4)c3)s2)n1 [Compound 2, reference compound] . Reported IC50?
Output line: 120

---

Quick reference for IC50 among some compounds
Biological target: SIRT2 (Homo sapiens, UniProt Q8IXJ6)
Construct: For assay experiments, strep-tagged human SIRT1134−747 and SIRT256-356 were expressed and purified as previously; Strep-tag; made in house; host or cells: E. coli BL21 Star (DE3)
Sequence (Q8IXJ6 56-356 limits assumed): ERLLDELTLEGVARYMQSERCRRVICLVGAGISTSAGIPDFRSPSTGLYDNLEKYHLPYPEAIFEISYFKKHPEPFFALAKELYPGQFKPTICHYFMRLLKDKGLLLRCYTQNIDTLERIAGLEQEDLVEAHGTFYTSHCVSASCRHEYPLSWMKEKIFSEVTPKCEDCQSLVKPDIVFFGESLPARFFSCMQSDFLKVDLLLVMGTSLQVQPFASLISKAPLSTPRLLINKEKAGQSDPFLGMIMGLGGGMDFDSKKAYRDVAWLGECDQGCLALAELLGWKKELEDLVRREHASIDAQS
Assay: Fluorescence-based deacetylation assay (ZMAL-assay), SIRT2
Type: biochemical
Details: 37 °C, assay limit 0.10 µM, read-out: SIRT2 (deac.) IC50

Known IC50 results, listed for orientation:
CCCCCCCCCCCCc1cn(CCCC[C@H](NC(=O)[C@H](CCCCN)NC(C)=O)C(N)=O)nn1    < 100 nM
CCCCCCCCCCCCc1cn(CCCC[C@H](NC(=O)[C@H](CCCCN)NC(=O)[C@@H]2CCCN2C(=O)[C@H](CC(C)C)NC(=O)[C@H](C)NC(=O)[C@H](CCC(=O)O)NC(C)=O)C(=O)N[C@H](C(=O)NCC(=O)NCC(N)=O)[C@@H](C)O)nn1    < 100 nM

# input for lookup
Input line: Entry under review: "CCCCCCCCCCCCc1cn(CCC[C@H](NC(=O)[C@H](CCCCN)NC(=O)[C@@H]2CCCN2C(=O)[C@H](CC(C)C)NC(=O)[C@H](C)NC(=O)[C@H](CCC(=O)O)NC(C)=O)C(=O)N[C@H](C(=O)NCC(=O)NCC(N)=O)[C@@H](C)O)nn1" . Reported IC50?
Output line: < 100 nM
